Below, each entry is listed with its recorded IC50.
# System: ovarian (SKOV3) cell line
# test.details: Antiproliferative activity, SKOV3
# Format: cell-based
# condition.parameters: Homo sapiens, SK-OV-3

- compound: "CC/C=C\\C(C)[C@H](OC(N)=O)[C@@H](C)[C@H](O)[C@@H](C)C/C(C)=C\\[C@H](C)[C@@H](O)C(C)/C=C\\c1ccc2c(c1)NC(=O)CO2 (single isomer, unassigned; (-)) [(−)-10]"
  IC50 [nM]: 790
- compound: "CC/C=C\\C(C)[C@H](OC(N)=O)[C@@H](C)[C@H](O)[C@@H](C)C/C(C)=C\\[C@H](C)[C@@H](O)C(C)/C=C\\c1ccc2ccc(=O)oc2c1 (single isomer, unassigned; (+)) [(+)-8]"
  IC50 [nM]: 35
- compound: "CC/C=C\\C(C)[C@H](OC(N)=O)[C@@H](C)[C@H](O)[C@@H](C)C/C(C)=C\\[C@H](C)[C@@H](O)C(C)/C=C\\c1ccc2c(c1)N(C)C(=O)CO2 (single isomer, unassigned; (+)) [(+)-11]"
  IC50 [nM]: 2400
- compound: "C=C/C=C\\[C@H](C)[C@H](OC(N)=O)[C@@H](C)[C@H](O)[C@@H](C)C/C(C)=C\\[C@H](C)[C@@H](O)[C@@H](C)/C=C\\[C@@H](O)CC1OC(=O)[C@H](C)[C@@H](O)[C@H]1C (single isomer, unassigned; (+)) [(+)-Discodermolide 1, (+)-discodermolide, reference compound]"
  IC50 [nM]: 25
- compound: "CC/C=C\\C(C)[C@H](OC(N)=O)[C@@H](C)[C@H](O)[C@@H](C)C/C(C)=C\\[C@H](C)[C@@H](O)C(C)/C=C\\c1ccc2c(c1)N(COC)C(=O)CO2 (single isomer, unassigned; (+)) [(+)-12]"
  IC50 [nM]: 2900
- compound: "C=C/C=C\\C(C)[C@H](OC(N)=O)[C@@H](C)[C@H](O)[C@@H](C)C/C(C)=C\\[C@H](C)[C@@H](O)C(C)/C=C\\c1ccc2ccc(=O)oc2c1 (single isomer, unassigned; (+)) [(+)-6]"
  IC50 [nM]: 44
- compound: "CC/C=C\\C(C)[C@H](OC(N)=O)[C@@H](C)[C@H](O)[C@@H](C)C/C(C)=C\\[C@H](C)[C@@H](O)C(C)/C=C\\c1ccc2oc(=O)ccc2c1 (single isomer, unassigned; (+)) [(+)-9]"
  IC50 [nM]: 1800
